Biological target: nuclear BRD4-NUT foci in HCC2494 NUT midline carcinoma cells (Homo sapiens (Human), UniProt O60885+Q86Y26)
Assay: Nut-foci formation assay (HCS)
Assay type: cell-based
Conditions: 24 hours, NUT-foci immunofluorescence
Reported log10(IC50) values for a set of molecules
# values: log10(IC50), units nM

Past entries and their recorded results:
>>> datavalue("Cc1cc(N2C(=O)c3c(C4CC4)nn(C)c3[C@H]2c2ccc(Cl)cc2)cn2c(C(F)F)nnc12")
0.33
>>> datavalue("Cc1cc(N2C(=O)c3c(C4CC4)nn(C)c3C2c2ccc(Cl)cc2)cn2c(C)nnc12 (centres unmarked)")
1.21
>>> datavalue("COCCn1nc(C2CC2)c2c1C(c1ccc(Cl)cc1)N(c1cc(C)c3nnc(C)n3c1)C2=O (racemic)")
0.96

Notebook: Cc1nnc2c(NC(=O)OC(C)(C)C)cc(N3C(=O)c4c(C5CC5)nn(C)c4C3c3ccc(Cl)cc3)cn12 (centres unmarked) , log10(IC50) read as 1.35

For this molecule ( COc1cc(N2C(=O)c3c(C4CC4)nn(C)c3C2c2ccc(Cl)cc2)cc2c1nnn2C (centres unmarked) ), measured log10(IC50) is 1.74

Value of log10(IC50) reported for the molecule Cc1cc(N2C(=O)c3c(C4CC4)nn(C)c3C2c2ccc(Cl)cc2)cn2c(C(F)F)nnc12 (racemic) is 0.92

Entry COc1cc(N2C(=O)c3c(C4CC4)nn(C)c3C2c2ccc(Cl)cc2)cn2c(C)nnc12 (racemic) — recorded log10(IC50) = 1.56

response.value for COCCn1nc(C2CC2)c2c1C(c1ccc(Cl)cc1)N(c1cc(C)c3nnc(CF)n3c1)C2=O (centres unmarked) (field: log10(IC50)) = 0.56

// recorded log10(IC50) for Cc1cc(N2C(=O)c3c(C4CC4)nn(C)c3[C@H]2c2ccc(Cl)cc2)cn2c(C)nnc12 : 0.67

// log10(IC50) lookup, molecule = Cc1cc(N2C(=O)c3c(C4CC4)nn(C)c3C2c2ccc(Cl)cc2)cn2c(CF)nnc12 (racemic) , result: 1.08

Lab note: measured log10(IC50) of CCOC(=O)Nc1cc(N2C(=O)c3c(C4CC4)nn(C)c3C2c2ccc(Cl)cc2)cn2c(C)nnc12 (centres unmarked) was 0.34

----------
Biological target: CREBBP bromodomain (His-CREBBP(1081-1197)) (Homo sapiens (Human), UniProt Q92793)
Sequence (Q92793 1081-1197): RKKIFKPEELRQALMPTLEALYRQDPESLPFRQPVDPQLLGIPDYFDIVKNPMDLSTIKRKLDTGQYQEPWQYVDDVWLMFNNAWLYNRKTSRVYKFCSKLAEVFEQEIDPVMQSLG
Test: AlphaScreen in-vitro binding assay for CREBBP
Conditions: AlphaScreen, acetyl-histone H4 peptide; read-out: CREBBP IC50
The reader will find reported IC50 values listed item by item below.
Provide the reading as a plain figure in µM.

Please review the following examples before continuing.
>>> datavalue("COCCn1nc(C2CC2)c2c1C(c1ccc(Cl)cc1)N(c1cc(C)c3nnc(C)n3c1)C2=O (racemic) [Example 4]")
7.3
>>> datavalue("Cc1cc(N2C(=O)c3c(C4CC4)nn(C)c3C2c2ccc(Cl)cc2)cn2c(C)nnc12 (stereo not shown) [Example 1]")
11.4
>>> datavalue("COc1ncccc1-c1nn(C)c2c1C(=O)N(c1cc(C)c3nnc(C)n3c1)C2c1ccc(Cl)cc1 (racemic) [Example 12]")
12.2
>>> datavalue("Cc1nnc2c(NC(=O)OC(C)(C)C)cc(N3C(=O)c4c(C5CC5)nn(C)c4C3c3ccc(Cl)cc3)cn12 (stereo not shown) [Example 27]")
8.1
>>> datavalue("Cc1cc(N2C(=O)c3c(C4CC4)nn(C[C@H](O)C(F)(F)F)c3[C@H]2c2ccc(Cl)cc2)cn2c(C)nnc12 [Example 20]")
7.9
>>> datavalue("Cc1cc(N2C(=O)c3c(C4CC4)nn(C[C@@H](O)C(F)(F)F)c3[C@H]2c2ccc(Cl)cc2)cn2c(C)nnc12 [Example 19]")
9.4

# evaluate next
# IC50 of Cc1cc(N2C(=O)c3c(C4CC4)nn(C)c3[C@H]2c2ccc(Cl)cc2)cn2c(CF)nnc12 [Example 17] = 9.8
